System: T-47D breast
ASSAY EXPLANATION: NCI-60 one-dose screen, 48 h
SETTINGS: 10 µM unless noted
About 83,000 compounds went through this panel and 20% of them were active in at least one assay; those are over-represented in the sample as a whole. Calls of active or inactive are those of the source. How the source made its calls: active means growth percent below 10; inactive means the rest.
Return exactly one item of active, inactive

Would you please look over these solved cases?
[
  {
    "MOLECULE": "COc1ccc(Cn2cc3c(c2-c2ccccc2)CCCc2cnoc2-3)cc1",
    "LABEL CLASS": "inactive"
  },
  {
    "MOLECULE": "CCNCc1c(-c2cccc(OC(F)(F)F)c2)[nH]c2ccc(N3CCCC3)cc2c1=O",
    "LABEL CLASS": "inactive"
  },
  {
    "MOLECULE": "ClC(Cl)c1nc(-c2cccs2)n2nc(-c3ccccc3)cc2n1",
    "LABEL CLASS": "active"
  },
  {
    "MOLECULE": "O=C1/C(=C/c2ccccc2[N+](=O)[O-])Oc2ccc(O)cc21",
    "LABEL CLASS": "inactive"
  },
  {
    "MOLECULE": "Nc1nc(N)c2c(n1)NC(c1ccccc1)CC(c1ccc(Nc3nc(NCCO)nc(Nc4ccc(Cl)cc4)n3)cc1)=N2 (centres undefined)",
    "LABEL CLASS": "inactive"
  }
]

Query block: For CC(=O)Nc1ccc(NC(=O)Nc2cccc(-c3nc(-c4ccc(NC(=O)c5cccnc5)cc4Cl)no3)c2)cc1C(F)(F)F , what call appears in the results of this test?
Result block: active

Query block: Any idea what this test logged for Cc1ccc(/C=C/c2nn3c(-c4ccco4)nnc3s2)cc1 ?
Result block: inactive

Query block: Can you look up the reported call for Cc1cc(O)c(=O)cc2c1C[C@H]1CC(C)(C)/C=C/C[C@]3(C)Oc4cc(=O)c(O)cc(C)c4C[C@H]3C[C@H](O)[C@@]1(C)O2 for me?
Result block: active

Query block: Which outcome did this test record for the molecule CCOC(=O)c1c(NC(=O)c2ccc(F)cc2F)sc2c1CCC(=O)C2 ?
Result block: inactive
